- study_target: SOS1 (Homo sapiens (Human))
- Sequence (Q07889 564-1049): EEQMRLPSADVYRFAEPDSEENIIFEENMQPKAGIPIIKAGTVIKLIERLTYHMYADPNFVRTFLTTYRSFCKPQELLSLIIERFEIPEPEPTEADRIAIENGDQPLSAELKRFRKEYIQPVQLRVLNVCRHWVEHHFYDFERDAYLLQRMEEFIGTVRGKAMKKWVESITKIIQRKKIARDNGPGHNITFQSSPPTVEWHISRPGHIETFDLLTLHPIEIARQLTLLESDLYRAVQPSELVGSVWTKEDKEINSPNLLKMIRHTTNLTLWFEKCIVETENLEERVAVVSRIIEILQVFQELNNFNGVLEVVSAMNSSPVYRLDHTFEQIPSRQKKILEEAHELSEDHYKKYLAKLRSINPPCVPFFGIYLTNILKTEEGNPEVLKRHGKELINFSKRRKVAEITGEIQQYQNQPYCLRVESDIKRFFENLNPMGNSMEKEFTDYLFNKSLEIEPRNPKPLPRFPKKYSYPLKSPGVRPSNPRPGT
- protocol: Ras-SOS interaction assay (HTRF)
- Format: biochemical
- condition_label: K-RasG13D utilized, read-out: IC50 inhibition of SOS
pIC50: −log10 of the molar value.
pIC50 reference
measurement_type: pIC50

- COc1nc2ncnc(N[C@H](C)c3cccc(C(F)F)c3F)c2cc1C1(C#N)CCS(=O)(=O)CC1: > 7.00
- Cc1nc(N[C@H](C)c2cccc(C(F)(F)F)c2C)c2cc(C3(C#N)CC3)c(N3CCN(C(C)C)CC3)nc2n1: > 7.00
- Cc1nc(N[C@H](C)c2cccc(C(F)F)c2F)c2cc(N3CCN(C(C)C)CC3)c(OC3COC3)nc2n1: > 7.00
- Cc1nc(N[C@H](C)c2cccc(C(F)(F)C(C)O)c2F)c2cc(C3(C#N)CC3)c(Cl)nc2n1 (stereo in doubt): > 7.00
- Cc1nc(N[C@H](C)c2cccc(C(F)(F)F)c2F)c2cc(C3(C#N)CC3)c(Cl)nc2n1: > 7.00
- COc1nc2nc(C)nc(N[C@H](C)c3cccc(C(F)F)c3F)c2cc1C1CCN(C(=O)NC2CNC2)CC1: > 7.00
- COc1nc2nc(C)nc(N[C@H](C)c3cccc(C(F)F)c3F)c2cc1C1(C#N)CCS(=O)(=O)CC1: > 7.00

---

- study_target: SOS1 (Homo sapiens (Human))
- protocol: Ras-SOS interaction assay (HTRF)
- Assay type: biochemical
- condition_label: K-RasG13D, read-out: IC50 value against SOS1
pIC50: −log10 of the molar value.
measurement_type: pIC50

* C[C@H](O)C(F)(F)c1cccc([C@@H](C)Nc2ncnc3nc(Cl)c(C4(C#N)CC4)cc23)c1 | > 7.30
* COc1nc2nc(C)nc(N[C@H](C)c3cccc(C(F)(F)CCC4CN(C(C)C)C4)c3F)c2cc1C1(C#N)CC1 | > 7.30
* CC(C)N1CCC(c2cc3c(N[C@H](C)c4cccc(C(F)F)c4F)ncnc3nc2OC2COC2)CC1 | > 7.30
* Cc1nc(N[C@H](C)c2cccc(C(F)F)c2F)c2cc(N3CCN(C)CC3)c(OC3COC3)nc2n1 | > 7.30
* COc1nc2ncnc(N[C@H](C)c3cccc(C(F)(F)F)c3C)c2cc1N1CCN(C2CCOCC2)CC1 | > 7.30
* Cc1nc(N[C@H](C)c2cccc(C(F)(F)CO)c2F)c2cc(C3(C#N)CC3)c(Cl)nc2n1 | > 7.30
* Cc1c([C@@H](C)Nc2ncnc3nc(Cl)c(N4CCS(=O)(=O)CC4)cc23)cccc1C(F)(F)F | > 7.30
* COc1nc2nc(C)nc(N[C@H](C)c3cccc(C(F)(F)C(C)(C)O)c3F)c2cc1N1CCN(C(C)C)CC1 | > 7.30
* COc1nc2ncnc(N[C@H](C)c3cccc(CC(F)F)c3F)c2cc1C1CCS(=O)(=O)CC1 | > 7.30
* COc1nc2nc(C)nc(N[C@H](C)c3cccc(C(F)(F)F)c3F)c2cc1N1CCN(C(=O)CO)CC1 | > 7.30
* COc1nc2nc(C)nc(N[C@H](C)c3cccc(C(F)(F)F)c3F)c2cc1C1CCN(C(=O)CO)CC1 | > 7.30
* Cc1nc(N[C@H](C)c2cccc(C(F)F)c2F)c2cc(C3CCN(C)CC3)c(OC3COC3)nc2n1 | > 7.30
* Cc1nc(N[C@H](C)c2cccc(C(F)F)c2F)c2cc(S(=O)(=O)C3CCN(C)CC3)c(C#N)nc2n1 | > 7.30
* CCN1CCC(c2cc3c(N[C@H](C)c4cccc(C(F)(F)F)c4C)nc(C)nc3nc2OC)CC1 | > 7.30
* COc1nc2ncnc(N[C@H](C)c3cccc(C(F)(F)C4CCN(C(C)C)CC4)c3)c2cc1C1CCN(C(C)C)CC1 | > 7.30
* COc1nc2nc(OC[C@H]3CCCN3C)nc(N[C@H](C)c3cccc(C(F)F)c3F)c2cc1C1(C#N)CC1 | > 7.30
* COc1nc2nc(OCC3CN(C)C3)nc(N[C@H](C)c3cccc(C(F)F)c3F)c2cc1C1(C#N)CC1 | > 7.30
* COc1nc2nc(C)nc(N[C@H](C)c3cccc(C(F)F)c3F)c2cc1C1(C#N)CCS(=O)(=O)CC1 | > 7.30
* COc1nc2nc(C)nc(N[C@H](C)c3cccc(C(F)(F)F)c3F)c2cc1C1CCN(C(C)C)CC1 | > 7.30
* Cc1nc(N[C@H](C)c2cccc(C(F)(F)F)c2C)c2cc(C3(C#N)CC3)c(N3CCN(C(C)C)CC3)nc2n1 | > 7.30
* COc1nc2nc(C)nc(N[C@H](C)c3cccc(C(F)F)c3F)c2cc1C1CCS(=O)(=O)CC1 | > 7.30
* CCN1CCN(c2cc3c(N[C@H](C)c4cccc(C(F)(F)F)c4F)ncnc3nc2OC)CC1 | > 7.30
* COc1nc2nc(C)nc(N[C@H](C)c3cccc(CC(F)F)c3F)c2cc1N1CCN(C)CC1 | > 7.30
* COc1nc2nc(C)nc(N[C@H](C)c3cccc(C(F)F)c3F)c2cc1C1CCS(=N)(=O)CC1 (some centres unmarked) [Compound 154] | > 7.30
* COc1nc2nc(C)nc(N[C@H](C)c3cccc(C(F)(F)C(C)(C)O)c3)c2cc1C1CCN(C(C)C)CC1 | > 7.30
* COc1nc2ncnc(N[C@H](C)c3cccc(C(F)(F)F)c3C)c2cc1C1CCN(C(C)C)CC1 | > 7.30
* Cc1nc(N[C@H](C)c2cccc(C(F)F)c2F)c2cc(C3(C#N)CC3)c(N3CCOCC3)nc2n1 | > 7.30
* COc1nc2nc(C)nc(N[C@H](C)c3cccc(C(F)F)c3F)c2cc1C1CCN(C(=O)NC2CNC2)CC1 | > 7.30
* CNc1nc2nc(C)nc(N[C@H](C)c3cccc(C(F)F)c3F)c2cc1C1CCS(=O)(=O)CC1 | > 7.30
